- System: MCF-7
- assay-info: Growth inhibition of MCF-7 sensitive breast cancer cells (colony formation, crystal violet)
- Type: cell-based, human
- conditions: 24 h drug treatment; crystal violet; read-out: Growth inhibition IC50, MCF-7, 24 h
- Experimental: In vitro Activity. […] This cell suspension was dispensed in 200 μL aliquots (1000 cells/well) into the inside wells of 96-well tissue culture plates. Outside wells contained 200 μL of media. […] A more thorough characterization of the growth inhibition of a variety of cancer cells as well as rat cardiomyocytes by Formula IV (aFK-PABC-Doxaz) was evaluated in comparison with inhibition of growth by Doxaz, Dox and aFK-PABC-Dox. […]
pIC50: −log10 of the molar value.
measured-quantity: pIC50

Query: Recorded pIC50 for CCOC(=O)N1COC2C(C)OC(OC3CC(O)(C(=O)CO)Cc4c(O)c5c(c(O)c43)C(=O)c3c(OC)cccc3C5=O)CC21 (stereo not shown) [Doxaz Ethyl Carbamate] , please?
Response: < 6.00
